targetOrSystem: Rap guanine nucleotide exchange factor 3 (Homo sapiens) (UniProt O95398)
measurementDescription: Counterscreen qHTS for agonist of cAMP-regulated guanine nucleotide exchange factor 3 (EPAC1) (AID 1645889); also: % of control where 0% means no effect; nearly all actives have a fitted effect of over 40% in size
measurementConditions: EPAC1 Rap1B-BODIPY-GDP exchange, fluorescence; series mostly up to 154 µM
Description: Assay Provider (PI): Xiaodong Cheng Ph.D. The University of Texas Medical Branch, […], TX MLPCN Grant: NS066510 In multi-cellular eukaryotic organisms, the effects of cAMP are transduced by two ubiquitously-expressed intracellular cAMP receptors, the classic protein kinase A/cAMP-dependent protein kinase (PKA/cAPK) and the more recently discovered exchange protein directly activated by cAMP/cAMP-regulated guanine nucleotide exchange factor (EPAC/cAMP-GEF). […]
Inconclusive results are not listed. Activity calls are given as the source filed them. Calls follow the shape of the dose curve; as a rule, active = well fitted activation curve with a large enough effect; inconclusive = small, poorly fitted or top-dose-only effect, or another doubt; inactive = no such curve, though single readings can be large or run the other way.
observationType: activation

COC1=C/C(=C/c2c(N)n3nc(-c4ccc(C)cc4)sc3nc2=O)C=CC1=O | inactive
O=C(O)c1cnn(-c2nc(-c3ccc(Cl)c(Cl)c3)cs2)c1C(F)(F)F | inactive
N#Cc1c(SCC(=O)Nc2nncs2)sc2c(O)cc(=O)[nH]c12 | inactive
O=C(O)c1ccc2c(c1)C(=O)N(c1ccc(/C=C/C(=O)c3ccccc3)cc1)C2=O | 8.33% [at 30.8 µM] (inactive)
COc1ccc(-c2csc(C(C)(O)c3ccccc3)n2)cc1 (stereo not drawn) | 23.4% [at 30.8 µM] (inactive)
COc1cc(C(=O)NCC(=O)N/N=C(\C)Cc2ccccc2)cc(OC)c1OC | inactive
COc1ccccc1NC(=O)CSc1sc2c(O)cc(=O)[nH]c2c1C#N | 12.5% [at 30.8 µM] (inactive)
O=C(NC1CCCCC1)C(c1ccc(C(F)(F)F)cc1)n1c(=O)c(-c2ccco2)nc2ccccc21 (stereo not drawn) | inactive
CCCc1[nH]c2ccc(C#N)cc2c1CCC | inactive
Cc1ccc(/C=N/N2CCN(Cc3cccc4ccccc34)CC2)o1 | inactive
COc1ccc(OC)c(C(=O)/C=C/c2ccccc2C(F)(F)F)c1 | inactive
CCN(CC)C(=O)CSc1nnc(-c2cccs2)n1Cc1ccco1 | inactive
COC(=O)c1ccc2nc(-c3ccc(OC)c(OC)c3)c(Cc3ccccc3)n2c1 | inactive
CCOC(=O)C1=C(CC)OC(N)=C(C#N)C1c1ccc(F)cc1F (stereo not drawn) | inactive
CCOC(=O)c1c(CC(C)C)csc1NC(C)=O | inactive
O=C(O)c1ccc(/C=N/NC(=O)c2ccc(CN3c4cccc5cccc(c45)S3(=O)=O)cc2)cc1 | 13.7% [at 30.8 µM] (inactive)
CC(C)(C)c1ccc(OCc2ccc(C(=O)N/N=C/c3ccc(O)c(O)c3)cc2)cc1 | 10.5% [at 30.8 µM] (inactive)
CC(=O)NS(=O)(=O)c1ccc(Nc2ccc([N+](=O)[O-])c3nonc23)cc1 | 1.5% [at 30.8 µM] (inactive)
COC(=O)C1=C(C)N(Cc2ccccc2)C(=O)N[C@H]1c1cccc(C(F)(F)F)c1 | 10.2% [at 30.8 µM] (inactive)
O=C(O)c1ccccc1NS(=O)(=O)c1ccc(NN=Cc2ccccc2F)c([N+](=O)[O-])c1 | 23.2% [at 30.8 µM] (inactive)
O=C1C=CC(=O)c2c(O)c(N3CCN(CCO)CC3)c(Cl)c(O)c21 | inactive
COc1ccc(N2CCOCC2)c(NC(=O)c2cccc3ccccc23)c1 | 22.6% [at 30.8 µM] (inactive)
Cc1ccc(Cn2c(C)nc3c(c2=O)c2nc4ccccc4nc2n3Cc2ccco2)cc1 | inactive
CCC(=O)OC1CC(C)N(C(=O)c2ccccc2)c2ccc(C)cc21 (stereo not drawn) | inactive
CCn1c(SCC(=O)Nc2sc3c(c2C(N)=O)CCC(C)C3)nnc1-c1ccco1 (stereo not drawn) | inactive
Cc1ccccc1OCC(=O)Nc1ccc(C(=O)OCc2cc(=O)n3c(C)csc3n2)cc1 | inactive
CSc1ccc(/C=N/NC(=O)CN2CCN(Cc3ccc(Cl)cc3)CC2)cc1 | inactive
COc1ccc(C(C)(NC(C)=O)c2nc(-c3cc(F)cc(F)c3)cs2)cc1 (stereo not drawn) | 15% [at 30.8 µM] (inactive)
CNC(=O)c1ccc2snnc2c1 | inactive
CCc1nnc(NS(=O)(=O)c2ccc(N/C=C\C(=O)c3ccc4ccccc4c3)cc2)s1 | 3.82% [at 30.8 µM] (inactive)
CC1CC1c1ccc(/C=C(\C#N)C(=O)Nc2cc(Cl)ccc2Cl)o1 (stereo not drawn) | inactive
Cn1cc([C@]2(O)C(=O)Nc3c(F)cccc32)c2ccccc21 | inactive
COc1ccc(-c2n[nH]c(C)c2-c2ccccc2OC)c(O)c1 | inactive
COc1ccccc1N1CCN(C(=O)c2ccc(S(=O)(=O)N3CCCC3)cc2)CC1 | inactive
COc1ccccc1NS(=O)(=O)c1ccc2ccccc2c1 | 16.4% [at 30.8 µM] (inactive)
C=C1SC(Nc2c(C)cc(C)cc2C)=NC12CCCCC2 | inactive
CC1CCc2c(sc3nc(SCC(=O)O)n(-c4ccccc4)c(=O)c23)C1 (stereo not drawn) | 5.5% [at 30.8 µM] (inactive)
COc1ccc(N=Cc2c(O)n(-c3cccc(C)n3)c(=O)c3ccccc23)c(OC)c1 | 19.8% [at 30.8 µM] (inactive)
Cc1cc(C)c2nc(N3C(=O)C(O)=C(C(=O)c4ccco4)C3c3cccc(O)c3)sc2c1 (stereo not drawn) | inactive
COc1cc(C(C)=O)ccc1COc1ccc(C(=O)O)cc1OC | -0.313% [at 30.8 µM] (inactive)
C[C@@H]1CCCCCCCCC(=O)OCCN1C(=O)OC(C)(C)C | inactive
Cn1cc([C@]2(O)C(=O)Nc3ccc(OC(F)(F)F)cc32)c2ccccc21 | 32.2% [at 30.8 µM] (inactive)
Cc1cc(Br)ccc1-n1[nH]c(C)c(C=Nc2cccc3nsnc23)c1=O | inactive

Numbers sourced from PubChem BioAssay (NCATS).
